Below, each of the compounds is paired with its reported GI50 value.
test system: HOP-92; experiment: NCI tumour cell line growth inhibition, 48 h
Active and inactive are the calls of the source. No stated cut-off is given here; in the data, active = GI50 up to about 1.1 µM and inactive = higher.
endpoint.label: GI50

In [3]: df
Out[3]:
                                    compound               result
 0                 CN(C)Cc1c[nH]c2ncnc(O)c12   38.9 µM (inactive)
 1  O=C1c2c(O)cccc2C(C(=O)CCCC(=O)C2c3cccc(O)c3C(=O)c3c(O)cccc32)c2cccc(O)c21    0.217 µM (active)
 2  Cc1ccccc1NC(=O)c1c(C)oc2c1C(=O)c1ccccc1C2=O   20.3 µM (inactive)
 3  COc1c(O)c(O)cc2c1-c1ccc(OC)c(=O)cc1C(NC(C)=O)CC2 (stereo unspecified)    2.7 µM (inactive)
 4  COC(=O)C1(C)CCc2c(ccc3ccccc23)C1=O (stereo unspecified)   45.4 µM (inactive)
 5  O=C(COC(c1ccc(F)cc1)c1ccc(F)cc1)N1CCN(CCCc2ccccc2)CC1   2.55 µM (inactive)
 6     CCCCCCCCCCCCCCCCS(=O)(=O)c1ccc(NN)cc1    7.1 µM (inactive)
 7  CC(C)OP(=O)(OC(C)C)c1c(N)n[nH]c1Nc1ccccc1  > 100 µM (inactive)
 8         O=c1c2cccnc2[nH]c2ccc3[nH]ncc3c12   > 10 µM (inactive)
 9  COc1ccccc1OCC(COC(=O)Nc1ccc(C)cc1)OC(=O)Nc1ccc(C)cc1 (stereo unspecified)   7.59 µM (inactive)
10                                 N=C1SCCS1     59 µM (inactive)

---

Below, each of the compounds is paired with its reported GI50 value.
tested on: ACHN; assay: NCI tumour cell line growth inhibition, 48 h
The source made the active and inactive calls. Cut-off read from the data, not from the text of the source: active = GI50 up to about 1.1 µM and inactive = higher.
endpoint.label: GI50

In [3]: df
Out[3]:
                                    compound  endpoint_label               result
 0   Oc1ccc(C(O)(c2ccccc2)c2ccccc2)c2ccccc12            GI50   1.77 µM (inactive)
 1  C[C@]12CCC(O)CC1=CC[C@@H]1[C@@H]2CC[C@]2(C)C(O)[C@H](n3ccnc3)C[C@@H]12 (some centres undefined)            GI50   62.2 µM (inactive)
 2  COc1ccc2oc(-c3ccc(OC)c(OC)c3OC)cc(=O)c2c1            GI50   61.8 µM (inactive)
 3  N#CC(C(=O)/C(=N/NC(=O)c1ccccc1O)C(C#N)c1ccc(Cl)cc1)c1ccc(Cl)cc1 (centres undefined)            GI50     16 µM (inactive)
 4  CCOc1ccc(/N=N/c2ccc3oc(=O)c(/C(C)=N\NC(=O)CC(=O)Nc4ccc(Cl)cc4)cc3c2)cc1            GI50   22.4 µM (inactive)
 5  CC(CC(N)C(=O)O)C(=O)O (centres undefined)            GI50  > 100 µM (inactive)
 6  COc1ccc(NC(=O)CSC(=O)c2ccccc2)c(SCCSSCCSc2cc(OC)ccc2NC(=O)CSC(=O)c2ccccc2)c1            GI50  > 100 µM (inactive)
 7          O=c1ss/c(=N\c2ccccc2)n1-c1ccccc1            GI50   17.1 µM (inactive)
 8  Cc1ccc([N+](=O)[O-])cc1S(=O)(=O)Nc1ccc(C2=NN(S(=O)(=O)c3cc([N+](=O)[O-])ccc3C)C(c3ccccc3O)C2)cc1 (centres undefined)            GI50   80.4 µM (inactive)
 9  N#CC(C(=O)/C(=N\NC(N)=O)C(C#N)c1ccccc1)c1ccccc1 (centres undefined)            GI50  > 100 µM (inactive)
10  COc1cc2c(cc1OC)C(O)[C@H](Br)C(C)(C)O2 (some centres undefined)            GI50  > 100 µM (inactive)
11  CC(=O)O[C@@H]1[C@H](C(C)C)[C@@H](OC(C)=O)C/C(C)=C/CC[C@]2(C)O[C@@H]12            GI50  > 100 µM (inactive)
12                CCCNC1=C(C(=O)OCC)C(=O)CO1            GI50  > 100 µM (inactive)
13  O=C1OC(c2ccc(Cl)c3ccccc23)c2ccccc21 (centres undefined)            GI50  > 100 µM (inactive)

---

system: UACC-257; assay: NCI tumour cell line growth inhibition, 48 h
The source made the active and inactive calls. Rule as the data show it: active = GI50 up to about 1.1 µM and inactive = higher.
Labels: active, inactive

                                    compound  class_assignment
 0  NC1=CN2c3ccccc3N(CC(=O)O)C2C=C1 (stereo not drawn)          inactive
 1          O=c1ss/c(=N\c2ccccc2)n1-c1ccccc1          inactive
 2  CC(C)(C)OC(=O)C1/C(=C/CO)CN1C(=O)OC(C)(C)C (stereo not drawn)          inactive
 3  [O-][n+]1c2cc(CBr)c(CBr)cc2[n+]([O-])c2c(O)cccc21          inactive
 4  CN1CCC23c4ccccc4NC1C21CCN(C)C3Nc2ccccc21          inactive
 5  COc1ccc2c(c1)CCC(OS(=O)(=O)CC13CCC(CC1=O)C3(C)C)C2=O (stereo not drawn)          inactive
 6  CC12CP(=O)(O)CC1C2(Cl)Cl (stereo not drawn)          inactive
 7  CC(=O)Oc1cc2c(cc1OC(C)=O)OCC(c1ccc(C)cc1)C2 (stereo not drawn)          inactive
 8        CCc1c[n+]([O-])c(C)cc1[N+](=O)[O-]          inactive
 9  c1ccc(SC(CCCCC(Sc2ccccc2)Sc2ccccc2)Sc2ccccc2)cc1          inactive
10  CSc1ccc2c(cc1=O)C(NC(=O)c1ccccc1)CCc1cc(O)c(O)c(O)c1-2 (stereo not drawn)          inactive
11  CC(C)OP(=O)(OC(C)C)c1c(N)n[nH]c1Nc1ccccc1          inactive
12  CCN(CC)C(=S)SC(C(=O)Nc1nnc(-c2ccccc2)o1)c1ccccc1 (stereo not drawn)          inactive
13  COCC(=O)OC1CCn2c1nc1c2C(=O)C(C)=C(NC(C)=O)C1=N (stereo not drawn)          inactive
14  CN(C)CCCNC(=O)N/N=C/c1ccc([N+](=O)[O-])cc1          inactive
15      NC1CC(=O)c2sccc21 (stereo not drawn)          inactive
16  CCc1cc2c(c3c1CCCC3=O)CC1(C2)Cc2cc(CC)c3c(c2C1)C(=O)CCC3          inactive
17            COc1cc(C)cc2c1c(=O)c1ccccc1n2C          inactive
18  O=C(c1ccccc1)N1OCCC1Nc1ccc(Br)cc1 (stereo not drawn)          inactive
19  C[C@]12C=CC(=O)C=C1CC[C@@H]1[C@@H]2CC[C@@]2(C)[C@H]1CC[C@]2(O)C(N)=O          inactive
20    O=[N+]([O-])c1cccc2nc3ccccc3c(NCCO)c12            active
21  COc1cc(-c2oc3c(OC)c(O)c(OC)c(O)c3c(=O)c2OC)ccc1O          inactive
22         O=C(COc1cc(=O)oc2ccccc12)c1ccccc1          inactive

---

test system: CCRF-CEM; experiment: NCI tumour cell line growth inhibition, 48 h
Active and inactive are the calls of the source. No stated cut-off is given here; in the data, active = GI50 up to about 1.1 µM and inactive = higher.
Labels: active, inactive

In [3]: df
Out[3]:
                                   molecule  experimental_system  class_assignment
0  CCOc1ccc(/N=N/c2ccc3oc(=O)c(/C(C)=N\NC(=O)CC(=O)Nc4ccc(Cl)cc4)cc3c2)cc1             CCRF-CEM            active
1              NC(=O)c1cccc([N+](=O)[O-])c1             CCRF-CEM          inactive
2  CCN(CC)CCNc1ccc2nnn3c4ccc(C)cc4c(=O)c1c23             CCRF-CEM          inactive
3  COc1cc2c(cc1OC)C(CC(=O)NN=C(C)C)NCC2 (stereo unspecified)             CCRF-CEM          inactive
4  C[N+](C)(C)CC(=O)N/N=C(/Cc1nc2ccc(Cl)cc2nc1O)C1=NS(=O)(=O)c2cc(S(N)(=O)=O)c(Cl)cc2N1             CCRF-CEM          inactive
5  O=C1c2c(O)cccc2C(C(=O)CCCC(=O)C2c3cccc(O)c3C(=O)c3c(O)cccc32)c2cccc(O)c21             CCRF-CEM            active
